Experiment: Solubility of elacytarabine in water, phosphate buffer and soybean oil based emulsions
Assay type: physicochemical
Conditions: deionised water, 25 °C, water
Test readout: solubility

>  <Compound>
CCCCCCCC/C=C/CCCCCCCC(=O)OC[C@H]1O[C@@H](n2ccc(N)nc2=O)[C@@H](O)[C@@H]1O [elacytarabine]

>  <Test readout>
solubility

>  <Observed measurement>
< 0.1 µg/mL

$$$$
